test: chemical genetic growth profiling, strain panel (AID 1159580);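 also: tested at 20 µM; growth read once vehicle control cultures reached saturation at 30 °C; 1 = growth at the plate median or of vehicle wells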; settings: S. cerevisiae deletion strains, growth OD, locus YNL298W, strain CLA4 (second series), active compounds read low
Among all 5,500 compounds or so, about 2,000 (36%) were called active. Another 18% or so got no clear call; they are omitted. Some of the results follow.
Property: normalized growth
Number only, no unit.

Example molecules with recorded normalized growth:
[[record]]
molecule = "CCOC(=O)C(c1ccccc1)C(Nc1ccc(Cl)c(Cl)c1)c1ccccn1 (stereo not given)"
property = "normalized growth"
value_reported = 1.01

[[record]]
molecule = "CC(C)(CC(=O)O)CC(=O)Nc1cc(C(F)(F)F)cc(C(F)(F)F)c1"
property = "normalized growth"
value_reported = 1.01

[[record]]
molecule = "O=C(CN1CCOCC1)Nc1cc(C(F)(F)F)cc(C(F)(F)F)c1"
property = "normalized growth"
value_reported = 0.992


Endpoint output: normalized growth of Cc1onc(-c2ccccc2Cl)c1C(=O)N1CCCN2C(=O)c3ccccc3C21 (stereo not given) . Value?
0.998

Endpoint output: normalized growth of CCOC(=O)C(O)(c1ccc(N)c(C)c1)C(F)(F)F (stereo not given) . Value?
1

====

assay: chemical genetic growth profiling, strain panel (AID 1159580); conditions: S. cerevisiae deletion strains, growth OD, locus YCR088W, strain abp1, active compounds read low
Among all 5,500 compounds or so, about 2,000 (36%) were called active. Not shown: some 18% with an inconclusive outcome. This is one part of the list.
Property: normalized growth
Number only, no unit.

[[record]]
molecule = "O=C(O)COc1ccc(Cl)cc1Cl"
value_reported = 1

[[record]]
molecule = "O=C(O)C(O)C(O)C(=O)O (stereo unspecified)"
value_reported = 0.992

[[record]]
molecule = "COc1ccc2oc3ccccc3c(=O)c2c1"
value_reported = 0.956

[[record]]
molecule = "NCCCCCC(=O)O"
value_reported = 0.995

[[record]]
molecule = "CC1OC(O[C@H]2/C=C/C=C/C=C/C=C/C=C/C=C/C=C/[C@H](C)[C@@H](O)[C@@H](C)[C@H](C)OC(=O)CC(O)CC(O)CCC(O)C(O)CC(O)C[C@]3(O)C[C@H](O)C(C(=O)O)C(C2)O3)C(O)[C@H](N)C1O (stereo partly specified)"
value_reported = 0.0609


Endpoint output: normalized growth of COc1cc2c(cc1OC)C1(O)C(=O)c3ccc(O)c(C(=O)O)c3OC1CO2 (stereo unspecified) . Value?
0.996

Endpoint output: normalized growth of COc1ccc(CCC(=O)c2c(O)cc(O[C@@H]3O[C@H](CO)C(O)[C@H](O)C3O[C@@H]3O[C@@H](C)[C@H](O)[C@@H](O)[C@H]3O)cc2O)cc1O (stereo partly specified) . Value?
1.02

Endpoint output: normalized growth of CC(C)(S)[C@@H](N)C(=O)O . Value?
1.01

Endpoint output: normalized growth of CC[C@@H]1OC(=O)C[C@@H](O)[C@H](C)[C@@H](O[C@@H]2O[C@H](C)[C@@H](O)[C@H](N(C)C)[C@H]2O)[C@@H](CCN2C[C@H](C)C[C@H](C)C2)C[C@@H](C)C(=O)/C=C/C(C)=C\[C@@H]1CO[C@@H]1O[C@H](C)[C@@H](O)[C@@H](OC)[C@H]1OC . Value?
1.01

Endpoint output: normalized growth of CC12CCC3C(=CCc4cc(O)ccc43)C1CCC2=O (stereo unspecified) . Value?
0.981

Endpoint output: normalized growth of C=C1C(=O)[C@]23[C@H](O)[C@H]1CC[C@H]2[C@@]12CO[C@]3(O)[C@H](O)[C@@H]1C(C)(C)CC[C@@H]2O . Value?
1

Endpoint output: normalized growth of C[C@]12CCC3c4ccc(O)cc4CCC3C1CCC2=O (stereo partly specified) . Value?
1.01

====

assay: chemical genetic growth profiling, strain panel (AID 1159580);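 also: tested at 20 µM; growth read once vehicle control cultures reached saturation at 30 °C; 1 = growth at the plate median or of vehicle wells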; conditions: S. cerevisiae deletion strains, growth OD, locus YMR231W, strain pep5, active compounds read low
About 2,000 (36%) of roughly 5,500 compounds were called active. About 18% were inconclusive and are not listed. The list shows a part of the results.
Property: normalized growth

Example molecules with recorded normalized growth:
[[record]]
molecule = "Clc1ccc(COC(Cn2ccnc2)c2ccc(Cl)cc2Cl)cc1 (centres undefined)"
property = "normalized growth"
value_reported = "0.125 (active)"

[[record]]
molecule = "CC(=O)OCC(=O)[C@@]1(O)CCC2C3CCC4=CC(=O)C=CC4(C)C3[C@@H](O)C[C@@]21C (some centres undefined)"
property = "normalized growth"
value_reported = "0.992 (inactive)"

[[record]]
molecule = "CC(=O)Oc1c2c(c3c(c1CC=C(C)C)O[C@]14C(=C[C@@H]5CC1C(C)(C)OC4(C/C=C(\\C)C(=O)O)C5=O)C3=O)OC(C)(CCC=C(C)C)C=C2 (some centres undefined)"
property = "normalized growth"
value_reported = "0.984 (inactive)"

[[record]]
molecule = "C=C[C@@]1(C)CC(=O)[C@@]2(O)[C@](C)(O1)[C@@H](OC(C)=O)[C@@H](O)C1C(C)(C)CC[C@H](O)[C@@]12C (some centres undefined)"
property = "normalized growth"
value_reported = "0.992 (inactive)"


Endpoint output: normalized growth of Nc1nc(F)nc2c1ncn2[C@@H]1O[C@H](COP(=O)(O)O)[C@@H](O)[C@@H]1O . Value?
0.995 (inactive)

Endpoint output: normalized growth of CC(C)c1nc(N(C)S(C)(=O)=O)nc(-c2ccc(F)cc2)c1/C=C/[C@@H](O)C[C@@H](O)CC(=O)O . Value?
0.958 (inactive)

Endpoint output: normalized growth of Clc1ccc(CO/N=C(/Cn2ccnc2)c2ccc(Cl)cc2Cl)c(Cl)c1 . Value?
0.205 (active)

Endpoint output: normalized growth of CC(=O)O[C@]1(C)CC[C@@]23CC1C(C)(C)[C@@H]2CC[C@H]3C . Value?
0.976 (inactive)

Endpoint output: normalized growth of CC(=O)Oc1c2c(c(CC=C(C)C)c3c1C(=O)C1=C[C@@H]4CC5C(C)(C)OC(C/C=C(\C)C(=O)O)(C4=O)[C@@]15O3)OC(C)(CCC=C(C)C)C=C2 (some centres undefined) . Value?
0.987 (inactive)

Endpoint output: normalized growth of NCCCNCCSP(=O)(O)O . Value?
0.978 (inactive)

====

experiment: chemical genetic growth profiling, strain panel (AID 1159580);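 also: tested at 20 µM; growth read once vehicle control cultures reached saturation at 30 °C; 1 = growth at the plate median or of vehicle wells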; details: S. cerevisiae deletion strains, growth OD, locus YJL095W, strain BCK1 (second series), active compounds read low
In all, about 5,500 compounds went through this assay and about 2,000 (36%) were called active. Another 18% or so got no clear call; they are omitted. The list shows a part of the results.
Cut-off 1 on normalized growth: below means 1, at or above means -1.

[[record]]
compound = "O=NN(CCCl)C(=O)NCCCl"
category_label = 1

[[record]]
compound = "CC1CCC(NC(=O)N(CCCl)N=O)CC1 (centres undefined)"
category_label = 1

[[record]]
compound = "C[C@H]1C[C@@H](O)[C@]2(O)[C@@]13CC(=O)OC[C@@]2(C)[C@](C)(O)C(=O)C3"
category_label = -1


From here, focus on the item given below.
Report whether reported normalized growth is lower than 1 (strictly) for O=c1[nH]c(=O)n(C2C[C@H](O)[C@@H](CO)O2)cc1C(F)(F)F (some centres undefined)
1

====

assay: chemical genetic growth profiling, strain panel (AID 1159580);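 also: tested at 20 µM; growth read once vehicle control cultures reached saturation at 30 °C; 1 = growth at the plate median or of vehicle wells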; details: S. cerevisiae deletion strains, growth OD, locus YIL066C, strain RNR3
Among all 5,500 compounds or so, about 2,000 (36%) were called active. Another 18% or so got no clear call; they are omitted. Cut-off read from the data, not from the text of the source: active = normalized growth mostly below about 0.91 (no sharp cut-off); inconclusive = no clear call, values can overlap the other calls; inactive = mostly above about 0.92. The list shows a part of the results.
I would appreciate it if you answered using one of these outcomes: active, inactive

These recorded examples may help you get a feel for the data.
[[record]]
compound = "CC(C)/C(O)=C1/C(=O)O[C@@H](c2ccoc2)[C@]2(C)C(O)[C@@H](O)[C@@]34OC5(C)OC67CC(C)(C(O)[C@]6(O)[C@@H](O)[C@]3(O5)C12)[C@H](CC(=O)O)[C@]74C (some centres undefined)"
category_label = "inactive"

[[record]]
compound = "Cc1nnc(NS(=O)(=O)c2ccc(N)cc2)s1"
category_label = "inactive"

[[record]]
compound = "O=c1oc2ccccc2cc1O"
category_label = "inactive"

[[record]]
compound = "C=C[C@@]1(C)CC(=O)[C@@]2(O)[C@](C)(O1)[C@@H](OC(C)=O)[C@@H](O)C1C(C)(C)CC[C@H](O)[C@@]12C (some centres undefined)"
category_label = "inactive"

[[record]]
compound = "Cc1cc(/C=C/c2ccc3cc(N(C)C)ccc3[n+]2C)c(C)n1-c1ccccc1"
category_label = "inactive"


Recorded test outcome, item CC(=O)O[C@H]1C[C@@H](OC(C)=O)C(C)(C)C2C[C@@H](O)[C@]3(C)C(CC[C@@]4(C)[C@H](c5ccoc5)OC(=O)[C@H]5O[C@]543)[C@]21C (some centres undefined)
inactive

Recorded test outcome, item CCC(C)C(=O)c1c(O)c(C)c2oc3c(C)c(O)c(C(=O)C(C)CC)c(O)c3c2c1O (centres undefined)
inactive

Recorded test outcome, item C[C@]12C=CC(=O)C=C1CCC1C2[C@@H](O)C[C@@]2(C)C1CC[C@]2(O)C(=O)CO (some centres undefined)
inactive
